target: Estrogen receptor (Homo sapiens) (UniProt P03372); assay: qHTS assay to identify small molecule agonists of the estrogen receptor alpha (ER-alpha) signaling pathway (AID 743075); settings: HEK293 ER-alpha-UAS-bla, beta-lactamase FRET ratio, 18 h; series mostly up to 70.1 µM;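 note: HEK293 GripTite cells with ER-alpha and UAS-driven beta-lactamase reporter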
Sequence (P03372 whole entry, looked up): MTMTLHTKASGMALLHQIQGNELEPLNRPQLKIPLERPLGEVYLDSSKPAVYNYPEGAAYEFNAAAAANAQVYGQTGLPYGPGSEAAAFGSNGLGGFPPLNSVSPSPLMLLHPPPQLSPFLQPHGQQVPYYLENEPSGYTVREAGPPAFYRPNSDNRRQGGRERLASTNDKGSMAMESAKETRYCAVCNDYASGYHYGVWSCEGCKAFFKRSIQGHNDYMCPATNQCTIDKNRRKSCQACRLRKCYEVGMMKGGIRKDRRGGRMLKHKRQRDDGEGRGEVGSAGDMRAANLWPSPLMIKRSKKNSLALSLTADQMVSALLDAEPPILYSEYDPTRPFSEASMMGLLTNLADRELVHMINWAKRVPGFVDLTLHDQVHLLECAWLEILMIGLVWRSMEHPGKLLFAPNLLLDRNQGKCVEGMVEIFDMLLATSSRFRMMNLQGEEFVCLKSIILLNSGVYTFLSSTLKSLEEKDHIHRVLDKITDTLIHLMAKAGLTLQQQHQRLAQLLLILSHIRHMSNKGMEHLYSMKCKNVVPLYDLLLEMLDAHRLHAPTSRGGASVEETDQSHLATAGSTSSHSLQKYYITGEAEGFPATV
Activity calls are given as the source filed them. Calls come from the whole dose curve. Non-standard residues stand in square brackets, D forms with d. Residues, ends and D or L forms follow the SMILES beside them. Orn = NCCC[C@H](N)C(=O)O
Give one outcome, nothing more. List: active, inactive

Incoming: Check the results log: what was the call for CC[C@H](C)C(=O)O[C@H]1CCC=C2C=C[C@H](C)[C@H](CC[C@@H]3C[C@@H](O)CC(=O)O3)[C@H]21 ?
Outgoing: inactive

Incoming: Please let me know the test result on file for CCOc1ccc([N+](=O)[O-])cc1 .
Outgoing: active

Incoming: I'd appreciate the recorded outcome for CC[C@H]1OC(=O)C[C@@H](O)[C@H](C)[C@@H](O[C@@H]2O[C@H](C)[C@@H](O)[C@H](N(C)C)[C@H]2O)[C@@H](CCN2C[C@H](C)C[C@H](C)C2)C[C@@H](C)C(=O)/C=C/C(C)=C/[C@@H]1CO[C@@H]1O[C@H](C)[C@@H](O)[C@@H](OC)[C@H]1OC from this test.
Outgoing: inactive

Incoming: GET /call?item= C=C1[C@@H]2CC[C@@H](C2)C1(C)C returns the recorded outcome of this test.
Outgoing: inactive

Incoming: Hi team, can someone confirm the assay call for Cc1cc(N)c2ccccc2[n+]1CCCCCCCCCC[n+]1c(C)cc(N)c2ccccc21 ?
Outgoing: inactive

Incoming: Could you please tell me the result logged for NC(=O)C1c2ccccc2CCc2ccccc21 in this assay?
Outgoing: inactive

Incoming: Recorded test outcome, item CC(C)(O/N=C(\C(=O)N[C@@H]1C(=O)N2C(C(=O)[O-])=C(C[n+]3ccccc3)CS[C@H]12)c1csc(N)n1)C(=O)O
Outgoing: inactive

Incoming: GET /call?item= C[Se]CC[C@H](N)C(=O)O returns the recorded outcome of this test.
Outgoing: inactive

Incoming: Answer briefly: the call reported for CCC[C@@H]1C[C@@H](C(=O)N[C@@H]([C@H]2O[C@H](SC)[C@H](OP(=O)(O)O)[C@@H](O)[C@H]2O)[C@H](C)Cl)N(C)C1 in this assay.
Outgoing: inactive

Incoming: Just curious, what result did CC(C)(COP(=O)(O)OP(=O)(O)OC[C@H]1O[C@@H](n2cnc3c(N)ncnc32)[C@H](O)[C@@H]1OP(=O)(O)O)C(O)C(=O)NCCC(=O)NCCS (some centres not stated) get here?
Outgoing: inactive

Incoming: Any idea what this test logged for CNC(=O)C[C@@H](N)C(=O)N[C@@H](C(=O)N[C@@H]1C(=O)N2[C@@H]1SC(C)(C)[C@@H]2C(=O)O)c1ccc(O)cc1 ?
Outgoing: inactive

Incoming: Per the records of this test, what outcome belongs to CC(=O)N[C@@H](C=O)[C@H](O)[C@H](O)[C@@H](O)CO ?
Outgoing: inactive

Incoming: Assay result, entry C[N+](C)(C)CCOP(=O)(O)OP(=O)([O-])OC[C@H]1O[C@@H](n2ccc(N)nc2=O)[C@H](O)[C@@H]1O — outcome?
Outgoing: inactive

Incoming: Look up the recorded call for OCCCNc1ccccc1 in this test.
Outgoing: inactive

Incoming: // return assay outcome for N#Cc1c(N(CC(=O)O)CC(=O)O)sc(C(=O)O)c1CC(=O)O
Outgoing: inactive

Incoming: Query: recorded result category for CC(=O)OCC(=O)[C@@]1(O)CC[C@H]2[C@@H]3C[C@H](C)C4=CC(=O)C=C[C@]4(C)[C@H]3[C@@H](O)C[C@@]21C in this test
Outgoing: inactive

Incoming: How was C[C@H]1O[C@@H](O[C@H]2CC[C@@]3(C)[C@H](CC[C@@H]4[C@@H]3C[C@@H](O)[C@]3(C)[C@@H](C5=CC(=O)OC5)CC[C@]43O)C2)C[C@H](O)[C@@H]1O[C@H]1C[C@H](O)[C@H](O[C@H]2C[C@H](O)[C@H](O[C@@H]3O[C@H](CO)[C@@H](O)[C@H](O)[C@H]3O)[C@@H](C)O2)[C@@H](C)O1 classified in this test?
Outgoing: inactive

Incoming: Which result was noted for this molecule in the test: C[C@H](Cc1ccc(O)c(O)c1)[C@@H](C)Cc1ccc(O)c(O)c1
Outgoing: inactive

Incoming: # fetch the recorded call for CCCCCCCCCCCCCCCCCCNC(=O)OC1CCN(C(=O)OC[C@H](COC(=O)N(Cc2cccc[n+]2CC)C(=O)c2ccccc2OC)OC)CC1 here
Outgoing: inactive

Incoming: // outcome(item) with item = O=C(O)c1ccc(NC2OC[C@@H](O)[C@H](O)[C@H]2O)cc1 (some centres not stated)
Outgoing: inactive

Incoming: Short answer needed: outcome of this test for O=C1[O][Bi][O]c2ccccc21 ?
Outgoing: inactive

Incoming: // outcome(item) with item = CCC(O)c1ccccc1 (configuration not stated)
Outgoing: inactive

Incoming: Dear all, I need the recorded test outcome for CCCCC/C=C\C=C\C(=O)OCC , thank you.
Outgoing: inactive

Incoming: # fetch the recorded call for N[C@H](C(=O)O)[C@@H]1CC(Cl)=NO1 here
Outgoing: inactive

Incoming: For O=C1C2CC3CC1CC(O)(C3)C2 , which call appears in the assay record?
Outgoing: inactive

Incoming: Kindly provide the recorded test outcome for the following molecule: CN(C/C=C/c1ccccc1)Cc1cccc2ccccc12
Outgoing: inactive

Incoming: Could you please tell me the result logged for CC(C)C[C@@H]1NC(=O)[C@H](CCCN)NC(=O)[C@H](C(C)C)NC(=O)[C@@H]2CCCN2C(=O)[C@@H](Cc2ccccc2)NC(=O)[C@H](CC(C)C)NC(=O)[C@H](CCCN)NC(=O)[C@H](C(C)C)NC(=O)[C@@H]2CCCN2C(=O)[C@@H](Cc2ccccc2)NC1=O (cyclo(V[Orn]L[dF]PV[Orn]L[dF]P)) in this assay?
Outgoing: inactive

Incoming: Recorded call for O=C(O)COc1ccccc1/C=N/NC(=O)c1ccncc1 ?
Outgoing: inactive

Incoming: Per the records of this test, what outcome belongs to NC[C@@H]1CC[C@@H](N)[C@@H](O[C@H]2[C@H](O)[C@@H](O[C@H]3O[C@H](CO)[C@@H](O)[C@H](N)[C@H]3O)[C@H](N)C[C@@H]2N)O1 ?
Outgoing: inactive

Incoming: What was the test verdict on NCCCC[C@H](NC(=O)[C@@H]1CCCN1C(=O)[C@@H]1CSSC[C@H](N)C(=O)N[C@@H](Cc2ccc(O)cc2)C(=O)N[C@@H](Cc2ccccc2)C(=O)N[C@@H](CCC(N)=O)C(=O)N[C@@H](CC(N)=O)C(=O)N1)C(=O)NCC(N)=O ?
Outgoing: inactive

Incoming: Any idea what this test logged for CC(=NCc1ccccc1)c1ccccc1O ?
Outgoing: inactive

Incoming: Give the logged outcome of this assay for the following molecule: O=C1OC(=O)c2cc(-c3ccc4c(c3)C(=O)OC4=O)ccc21
Outgoing: inactive

* * *

assay: qHTS assay to identify small molecule antagonists of the estrogen related receptor signaling pathway with the pleiotropic PPARgamma coactivator (PGC) cell viability counter screen (AID 1224822;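 note: viability read after 17.5 h compound exposure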); details: ERR/PGC reporter cell line viability counter screen; series mostly up to 46.1 µM
Records with an inconclusive call do not appear. Calls of active or inactive are those of the source. Calls follow the shape of the dose curve; as a rule, active = well fitted cell-killing curve with a large enough effect in the repeat runs; inconclusive = weak or mixed curves, or effect the other way; inactive = flat fitted curve, though single readings scatter.
Give your call using only these classes: Yes (active), No (inactive)

Incoming: Hi, do you know how N=C(N)c1ccc(OCCCCCOc2ccc(C(=N)N)cc2)cc1 (tested in a mixture with another compound) came out in this test?
Outgoing: No

Incoming: Check the results log: what was the call for NC(Cc1cccc(-c2ccccc2CP(=O)(O)O)c1)C(=O)O (centres undefined) ?
Outgoing: No

Incoming: Write down the call the test reported for this compound. Item: CCOC(=O)[C@H](CCc1ccccc1)N[C@@H](C)C(=O)N1[C@H](C(=O)O)C[C@H]2CCCC[C@@H]21
Outgoing: No

Incoming: Each compound tested received a call. Report the one for Oc1cc2c(cc1O)CN(C(=S)NCCc1ccc(Cl)cc1)CCC2 .
Outgoing: No

Incoming: Which outcome was entered for the compound CCCCCC[C@@H]([C@@H](C)O)n1cnc2c(N)ncnc21 in this test?
Outgoing: No

Incoming: Per the assay record, what outcome was assigned to NCC(O)C1CCCCCCC1 (centres undefined) ?
Outgoing: No

Incoming: For COc1cc(/C=C(\C#N)C(=O)c2ccc(O)c(O)c2)cc(I)c1O , what call appears in the results of this test?
Outgoing: No

Incoming: Can you look up the reported call for CN(C)C(=O)/N=N/C(=O)N(C)C for me?
Outgoing: No

Incoming: Dear colleague, could you share the recorded outcome for O=c1c2ccccc2nc2n1CCc1c-2[nH]c2ccccc12 when you have a moment?
Outgoing: No

Incoming: Outcome? O=C1NC(=O)/C(=C/c2ccc(-c3ccc(F)cc3O)o2)S1
Outgoing: No

Incoming: Test call, this compound: O=C1NC(=O)/C(=C/c2ccc3nccnc3c2)S1
Outgoing: No

Incoming: Assay outcome for COc1ccc(C(=O)/C(Cc2cc(OC)c(OC)c(OC)c2)=C(\C(=O)O)c2ccc3c(c2)OCO3)cc1 : what was it?
Outgoing: Yes

Incoming: Please let me know the test result on file for N[C@@H](Cn1ccc(=O)c(O)c1)C(=O)O .
Outgoing: No

Incoming: What did this assay record as the result for CC#CCOC(=O)c1c(C)nc2sc3c(c2c1N)CCC(O)C3 (centres undefined) ?
Outgoing: No

Incoming: Record request — test call for NCC1OC(OC2C(O)[C@@H](OC3C(O)C(N)CC(N)C3OC3OC(CO)C(O)C(O)C3N)O[C@@H]2CO)C(N)C(O)C1O (some centres undefined)
Outgoing: No

Incoming: Status in this test for Oc1cc(O)cc(/C=C/c2ccc(O)c(O)c2)c1 ?
Outgoing: No

Incoming: Hi, sorry to bother you, what did the test record for Nc1ncnc2c1ncn2[C@@H]1O[C@H](COP(=O)(O)OP(=O)(O)OP(=O)(O)OP(=O)(O)OC[C@@H]2O[C@H](n3cnc4c(N)ncnc43)[C@@H](O)C2O)C(O)[C@H]1O (some centres undefined) ?
Outgoing: No

Incoming: Recorded call for O=C(N[C@@H](Cc1ccccc1)C(=O)CCl)OCc1ccccc1 ?
Outgoing: Yes

Incoming: Recorded call for CCCCCCCCCC(=O)NC(CN1CCOCC1)[C@H](O)c1ccccc1 (some centres undefined) ?
Outgoing: No

Incoming: Per the assay record, what outcome was assigned to N[C@H](C(=O)O)[C@H](Cc1ccccc1)C(=O)O ?
Outgoing: No

Incoming: Query: recorded result category for NCCCCN=C(N)N in this test
Outgoing: No

Incoming: What was the test verdict on Nc1nc2c(nc(Br)n2C2OC3COP(=O)(O)O[C@@H]3C2O)c(=O)[nH]1 (some centres undefined) ?
Outgoing: No

Incoming: I'd appreciate the recorded outcome for CCCCCCCCCCCCCCSCC(=O)O from this test.
Outgoing: No

Incoming: // outcome(item) with item = CCNc1nc2c(ncn2[C@H]2C[C@H](O)[C@@H](CO)O2)c(=O)[nH]1
Outgoing: No

Incoming: Per the records of this test, what outcome belongs to O=C1/C(=C/c2ccsc2)CC/C1=C\c1cccs1 ?
Outgoing: No

Incoming: Short answer needed: outcome of this test for COc1cc(NS(C)(=O)=O)ccc1Nc1c2ccccc2nc2ccccc12 ?
Outgoing: Yes

Incoming: Dear all, I need the recorded test outcome for Nc1ccc(CCNc2ncnc3c2ncn3C2OC(CO)C(O)C2O)cc1 (centres undefined) , thank you.
Outgoing: No

Incoming: Just curious, what result did C=C1C[C@@]23CC[C@H]4[C@@](C)(CCC[C@@]4(C)C(=O)O)[C@@H]2CC[C@]1(O)C3 get here?
Outgoing: No

Incoming: For this compound, state the assay outcome: Nc1nc(SCc2ccc([N+](=O)[O-])cc2)c2ncn([C@@H]3O[C@H](CO)C(O)[C@H]3O)c2n1 (some centres undefined)
Outgoing: No

Incoming: Short answer needed: outcome of this test for CO[C@H]1O[C@@H]2O[C@]3(C)CC[C@@H]4[C@@H](C)CC[C@H]([C@H]1C)[C@]24OO3 ?
Outgoing: No

Incoming: Tell me the assay call for O=[N+]([O-])c1ccc(CSc2ncnc3c2ncn3[C@@H]2O[C@H](CO)C(O)[C@H]2O)cc1 (some centres undefined) please.
Outgoing: No

Incoming: Test call for this compound, please: O=C(O)C1=CCNCC1
Outgoing: No

Incoming: What did this assay record as the result for CC(C)NC[C@H](O)COc1cccc2[nH]ccc12 ?
Outgoing: No

Incoming: Dear all, I need the recorded test outcome for N.N.O=C(O)C1(C(=O)O)CCC1.[Pt+2] , thank you.
Outgoing: No

Incoming: Recorded test call requested for CN1Cc2sccc2C(c2ccc(O)c(O)c2)C1 (centres undefined)
Outgoing: No

Incoming: Tell me the recorded outcome of this test for CCCOC(=O)c1ccc(O)cc1 .
Outgoing: No

Incoming: Which result was noted for this compound in the test: CC(=O)NNC(=O)N1Cc2ccccc2Oc2ccc(Cl)cc21
Outgoing: No

Incoming: Short answer needed: outcome of this test for Cc1cccc(-c2[nH]c(C(C)(C)C)nc2-c2ccc3nccnc3c2)n1 ?
Outgoing: Yes

Incoming: Can you look up the reported call for CC1(C)CCC=[N+]1[O-] for me?
Outgoing: No

Incoming: Lab log entry: CCCCCCCC/C=C\CCCCCCCC(=O)NCCO — outcome as called in the assay?
Outgoing: No

Incoming: # lookup: test call for O=[N+]([O-])c1ccc2c(c1)S(=O)(=O)C=C2
Outgoing: Yes

Incoming: Call for entry Nn1nnc2ccccc21 :
Outgoing: No

Incoming: # outcome recorded in this test, key = O=c1[nH]c2ccccc2c2ccccc12
Outgoing: No

Incoming: For Cc1cc(Cn2cnc3c2C[C@@H](C(=O)O)N(C(=O)C(c2ccccc2)c2ccccc2)C3)ccc1N , what call appears in the results of this test?
Outgoing: No
